target: Peroxisome proliferator-activated receptor gamma/Nuclear receptor coactivator 2 (Homo sapiens); assay type: functional;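 note: agonist potency for raising coactivator recruitment to the receptor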
Sequence (P37231 whole entry): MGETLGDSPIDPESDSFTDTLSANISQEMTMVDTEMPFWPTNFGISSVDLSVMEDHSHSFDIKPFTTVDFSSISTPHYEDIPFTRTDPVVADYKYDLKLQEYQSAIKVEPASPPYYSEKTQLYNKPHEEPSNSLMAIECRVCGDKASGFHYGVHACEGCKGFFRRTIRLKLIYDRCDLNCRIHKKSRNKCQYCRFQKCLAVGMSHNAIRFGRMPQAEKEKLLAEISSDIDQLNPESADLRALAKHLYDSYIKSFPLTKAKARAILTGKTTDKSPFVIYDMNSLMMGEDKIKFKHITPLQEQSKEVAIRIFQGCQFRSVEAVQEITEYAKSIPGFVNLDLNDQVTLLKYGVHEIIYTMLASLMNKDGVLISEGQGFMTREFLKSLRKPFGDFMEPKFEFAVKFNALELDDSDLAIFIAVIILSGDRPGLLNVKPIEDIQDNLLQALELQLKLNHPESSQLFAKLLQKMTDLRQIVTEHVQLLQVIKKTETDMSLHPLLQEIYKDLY
Sequence (Q15596 whole entry, further chain): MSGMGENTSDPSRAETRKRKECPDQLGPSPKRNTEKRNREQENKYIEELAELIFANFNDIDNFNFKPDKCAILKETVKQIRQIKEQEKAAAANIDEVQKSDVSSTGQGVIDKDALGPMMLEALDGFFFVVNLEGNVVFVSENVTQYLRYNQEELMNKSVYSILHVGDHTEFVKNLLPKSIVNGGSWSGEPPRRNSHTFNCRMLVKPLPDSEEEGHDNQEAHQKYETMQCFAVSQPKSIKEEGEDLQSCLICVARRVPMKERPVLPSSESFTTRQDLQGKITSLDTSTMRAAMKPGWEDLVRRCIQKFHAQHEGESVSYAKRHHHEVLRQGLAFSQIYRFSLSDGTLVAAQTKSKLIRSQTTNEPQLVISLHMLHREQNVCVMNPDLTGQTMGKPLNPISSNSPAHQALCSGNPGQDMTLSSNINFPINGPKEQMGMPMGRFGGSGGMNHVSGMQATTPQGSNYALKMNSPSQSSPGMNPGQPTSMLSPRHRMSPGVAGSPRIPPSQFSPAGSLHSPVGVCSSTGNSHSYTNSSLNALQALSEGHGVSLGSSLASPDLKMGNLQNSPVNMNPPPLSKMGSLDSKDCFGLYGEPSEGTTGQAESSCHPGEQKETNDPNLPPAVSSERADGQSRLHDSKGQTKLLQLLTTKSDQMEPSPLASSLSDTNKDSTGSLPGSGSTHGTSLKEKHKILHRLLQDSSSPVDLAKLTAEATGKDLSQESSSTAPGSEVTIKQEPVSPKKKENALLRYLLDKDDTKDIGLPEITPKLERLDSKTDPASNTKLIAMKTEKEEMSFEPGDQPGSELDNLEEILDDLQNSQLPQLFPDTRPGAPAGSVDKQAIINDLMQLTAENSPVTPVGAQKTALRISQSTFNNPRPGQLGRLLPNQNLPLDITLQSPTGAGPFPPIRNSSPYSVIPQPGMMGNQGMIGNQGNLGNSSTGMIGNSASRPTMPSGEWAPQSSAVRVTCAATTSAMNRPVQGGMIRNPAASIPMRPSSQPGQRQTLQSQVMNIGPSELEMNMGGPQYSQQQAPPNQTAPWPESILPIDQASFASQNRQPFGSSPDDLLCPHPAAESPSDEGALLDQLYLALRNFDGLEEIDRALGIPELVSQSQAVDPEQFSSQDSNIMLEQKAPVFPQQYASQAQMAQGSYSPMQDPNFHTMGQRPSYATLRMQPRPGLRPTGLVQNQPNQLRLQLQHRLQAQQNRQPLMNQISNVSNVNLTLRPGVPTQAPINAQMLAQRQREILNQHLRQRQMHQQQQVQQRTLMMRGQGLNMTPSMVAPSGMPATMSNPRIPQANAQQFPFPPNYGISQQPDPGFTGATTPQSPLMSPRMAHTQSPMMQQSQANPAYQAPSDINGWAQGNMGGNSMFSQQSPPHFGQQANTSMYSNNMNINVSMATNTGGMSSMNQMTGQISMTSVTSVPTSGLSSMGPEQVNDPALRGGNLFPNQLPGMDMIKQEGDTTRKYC
Active and inactive are the calls of the source.
MEASURED_METRIC: EC50

> print(dat)
                                smiles.repr  measured.metric                  result
1  CCCCOc1ccc(C(=O)N/C(=C/C=C/c2ccccc2)C(=O)O)cc1             EC50  > 79.4 µM (not active)
2  Cc1ccc(NS(=O)(=O)c2ccc(OCC(=O)NCc3cccnc3)cc2)cc1             EC50  > 79.4 µM (not active)
3  C=CCn1c(=O)c2ccccc2n2c(SCc3nc(N)nc(Nc4ccccc4C)n3)nnc12             EC50  > 79.4 µM (not active)
4       Cc1ccc(C(=O)Nc2nnc(-c3cccs3)s2)cc1C             EC50        9.65 µM (active)
5        Oc1c(Br)cc(Br)cc1/C=N/Cc1ccc(F)cc1             EC50    38.3 µM (not active)
6  CN(C)c1ncc(C2=C(Cl)C(=O)C(N3CCCC3)=C(Cl)C2=O)s1             EC50  > 79.4 µM (not active)
7  CCOc1ccc(-c2nn(-c3ccccc3)cc2/C=C2\SC(N)=NC2=O)cc1C             EC50  > 79.4 µM (not active)

----------
Listed here are compounds together with their documented EC50.
assay: inhibitors of SNCA 5'UTR-driven reporter translation, confirmation, H4 neuroglioma cells, luminescence (AID 1988); assay type: functional, cell-based
Active and inactive are the calls of the source.
MEASURED_METRIC: EC50

> print(dat)
                                    compound                  result
 1  COC(=O)C1=CN(C2CCCCC2)C=C(C(=O)OC)C1c1ccc2c(c1)OCO2   > 120 µM (not active)
 2  CCOC(=O)CN1C(=O)C(Sc2n[nH]c(-c3ccc(C)cc3)n2)CCc2ccccc21 (stereo not given)   > 120 µM (not active)
 3  Cc1cc(NCCCn2ccnc2)n2ncc(-c3ccc(Cl)cc3)c2n1  9.97 µM (inconclusive)
 4                       CCCCCCCn1ccc(=N)cc1        14.8 µM (active)
 5        COC(=O)c1ccc2nc(-c3cccc(N)c3)cn2c1        6.89 µM (active)
 6  CC1=C([N+](=O)[O-])C(c2ccccc2)C2=C(O)c3ccccc3C2=N1 (stereo not given)       < 0.1 µM (active)
 7  COc1ccc(-c2nc3c4c(ncn3n2)-c2ccccc2CC42CCCC2)cc1        14.7 µM (active)
 8  Clc1ccccc1Cn1nnc2c(N3CCOCC3)nc(C3CC3)nc21          27 µM (active)
 9  Cc1ccnc(NC(=O)c2ccccc2NC(=O)c2ccc(Cl)cc2Cl)c1   > 120 µM (not active)
10   Oc1c(CN2CCOCC2)cc(COCc2ccccc2)c2cccnc12        4.24 µM (active)

----------
target: UniProt:P10520; experiment: S. pyogenes streptokinase expression inhibitors, potency, dose response, plasminogen activation absorbance, OD405 (AID 1914); assay type: functional, Streptococcus pyogenes M1 GAS;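 note: secreted streptokinase activity via plasminogen activation per viability signal from cell pellet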
Sequence (P10520 whole entry): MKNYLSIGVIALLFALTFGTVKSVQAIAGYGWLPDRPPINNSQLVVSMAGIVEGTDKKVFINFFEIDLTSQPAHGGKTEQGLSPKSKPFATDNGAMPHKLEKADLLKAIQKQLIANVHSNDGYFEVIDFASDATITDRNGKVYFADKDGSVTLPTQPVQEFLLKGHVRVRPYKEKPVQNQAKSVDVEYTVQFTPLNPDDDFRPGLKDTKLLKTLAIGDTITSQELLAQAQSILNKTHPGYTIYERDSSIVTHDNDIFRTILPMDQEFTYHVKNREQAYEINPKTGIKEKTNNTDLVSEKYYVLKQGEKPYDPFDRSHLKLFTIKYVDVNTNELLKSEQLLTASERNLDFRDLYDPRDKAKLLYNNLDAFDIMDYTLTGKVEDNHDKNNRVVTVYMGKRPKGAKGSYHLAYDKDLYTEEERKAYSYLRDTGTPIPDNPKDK
Activity calls are given as the source filed them.
Listed here are molecules together with their documented EC50.
MEASURED_METRIC: EC50

> print(dat)
                                 smiles.repr                  result
 1  O=C(N/N=C/c1cc([N+](=O)[O-])cc(Br)c1O)C12CC3CCC(CC(C3)C1)C2   > 150 µM (not active)
 2  Cc1ccc(C(=O)c2c(C)oc3c2C(=O)C(=O)c2ccccc2-3)cc1   > 150 µM (not active)
 3  O=C(Nc1nnc(C2=COCCO2)o1)c1ccc([N+](=O)[O-])s1   > 150 µM (not active)
 4  COc1cccc(NP(=O)(Oc2ccc(Cl)cc2)Oc2ccc(Cl)cc2)c1        4.68 µM (active)
 5  CCOc1ccc2nc(NC(=O)CN3CCC(n4nnc5cc(C(F)(F)F)ccc54)CC3)sc2c1   > 150 µM (not active)
 6         COc1ccc(-c2cc3nc[nH]c(=O)c3s2)cc1   > 150 µM (not active)
 7  COc1cc(Nc2c([N+](=O)[O-])nn(-c3ccc4c(c3)OCCO4)[n+]2[O-])cc(OC)c1   > 150 µM (not active)
 8  CCOC(=O)/C(=N\Nc1ccc(Cl)cc1)c1csc(Nc2ccccc2)n1        20.9 µM (active)
 9     COc1ccccc1/N=c1\oc2cc(O)ccc2cc1C(N)=O   > 150 µM (not active)
10  COc1cc(/C=N/N=c2\[nH]c3ccccc3s2)cc([N+](=O)[O-])c1O   > 150 µM (not active)
11  CN(C)c1ncc(C2=C(Cl)C(=O)C(N3CCCC3)=C(Cl)C2=O)s1   > 150 µM (not active)
12  Cc1ccc(Cn2nnc3c(=O)[nH]c(C4CCN(S(=O)(=O)c5cc(C)ccc5C)CC4)nc32)cc1        21.4 µM (active)
13       O=C1C(O)=C/C(=N\c2ccccc2O)c2ccccc21         132 µM (active)
14            Clc1ccc(CSc2nccn2Cc2ccccc2)cc1  24.2 µM (inconclusive)
